Values compiled from patent US4826814A.

biological target: UniProt:P12822
pIC50: −log10 of the molar value. Starred links: 1 amine or outer side, 2 acyl side, 3 side chain; linkers in the order of their positions; H or OH if unused. Non-standard residues stand in square brackets, D forms with d. Residues, ends and D or L forms follow the SMILES beside them. *: point of attachment. d(γGlu) = O=C(O)[C@@H](CCC(=O)[*:2])N[*:1]; Oic = O=C(O)[C@@H]1C[C@@H]2CCCC[C@@H]2N1; Orn = NCCC[C@H](N)C(=O)O; Cbz = O=C(OCc1ccccc1)*; Bz = O=C(c1ccccc1)*
Classify by measured pIC50: YES if it is equal to or exceeds 8, NO if it is smaller.

// below: answered molecules
| MOLECULE | CLASS LABEL |
| --- | --- |
| NCCCC[C@H](NC(=O)[C@H]1CCCN1)C(=O)N[C@H](CCC(=O)N1c2ccccc2C[C@H]1C(=O)O)C(=O)O [Example 17] | NO |
| NCCC[C@H](NC(=O)OCc1ccccc1)C(=O)N[C@H](CCC(=O)N1[C@H](C(=O)O)C[C@@H]2CCCC[C@@H]21)C(=O)O [Example 14] (Cbz-[Orn]-[d(γGlu)]-[Oic]-OH) | YES |

Query string: Decide: pIC50 of NCCCC[C@H](NC(=O)OC1CCCC1)C(=O)N[C@H](CCC(=O)N1c2ccccc2C[C@H]1C(=O)O)C(=O)O [Example 37] >= 8?
Result string: YES

Query string: // inclusive: pIC50 at least 8? input: NCCCC[C@H](NC(=O)OC1CCCCC1)C(=O)N[C@H](CCC(=O)N1[C@H](C(=O)O)C[C@@H]2CCCC[C@@H]21)C(=O)O [Example 31]
Result string: YES

Query string: Check this molecule for pIC50 at or above 8: NCCCC[C@H](NC(=O)c1ccco1)C(=O)N[C@H](CCC(=O)N1c2ccccc2C[C@H]1C(=O)O)C(=O)O [Example 8]
Result string: NO

Query string: Check the entry NCCCC[C@H](N)C(=O)N[C@H](CCC(=O)N1c2ccccc2C[C@H]1C(=O)O)C(=O)O [reference compound] : does pIC50 equal or exceed 8?
Result string: NO

Query string: Answer whether pIC50 of NCCCC[C@H](NC(=O)c1ccccc1)C(=O)N[C@H](CCC(=O)N1[C@H](C(=O)O)C[C@@H]2CCCC[C@@H]21)C(=O)O [Example 27] (Bz-Lys-[d(γGlu)]-[Oic]-OH) is greater than or equal to 8.
Result string: YES

Query string: Hello, I need to know if NCCCC[C@H](NC(=O)c1ccc(O)cc1)C(=O)N[C@H](CCC(=O)N1[C@H](C(=O)O)C[C@@H]2CCCC[C@@H]21)C(=O)O [Example 51] has measured pIC50 not below 8. Thanks!
Result string: YES

Query string: Answer whether pIC50 of COc1ccccc1C(=O)N[C@@H](CCCCN)C(=O)N[C@H](CCC(=O)N1[C@H](C(=O)O)C[C@@H]2CCCC[C@@H]21)C(=O)O [Example 70] is greater than or equal to 8.
Result string: YES

----------
As shown below, each of these compounds has a reported IC50 value.
Target: ACE preparation (rabbit lung) (Oryctolagus cuniculus, UniProt P12822)
Construct: an ACE preparation (rabbit lung); from tissue; host or cells: rabbit lung
Sequence (P12822 34-1310): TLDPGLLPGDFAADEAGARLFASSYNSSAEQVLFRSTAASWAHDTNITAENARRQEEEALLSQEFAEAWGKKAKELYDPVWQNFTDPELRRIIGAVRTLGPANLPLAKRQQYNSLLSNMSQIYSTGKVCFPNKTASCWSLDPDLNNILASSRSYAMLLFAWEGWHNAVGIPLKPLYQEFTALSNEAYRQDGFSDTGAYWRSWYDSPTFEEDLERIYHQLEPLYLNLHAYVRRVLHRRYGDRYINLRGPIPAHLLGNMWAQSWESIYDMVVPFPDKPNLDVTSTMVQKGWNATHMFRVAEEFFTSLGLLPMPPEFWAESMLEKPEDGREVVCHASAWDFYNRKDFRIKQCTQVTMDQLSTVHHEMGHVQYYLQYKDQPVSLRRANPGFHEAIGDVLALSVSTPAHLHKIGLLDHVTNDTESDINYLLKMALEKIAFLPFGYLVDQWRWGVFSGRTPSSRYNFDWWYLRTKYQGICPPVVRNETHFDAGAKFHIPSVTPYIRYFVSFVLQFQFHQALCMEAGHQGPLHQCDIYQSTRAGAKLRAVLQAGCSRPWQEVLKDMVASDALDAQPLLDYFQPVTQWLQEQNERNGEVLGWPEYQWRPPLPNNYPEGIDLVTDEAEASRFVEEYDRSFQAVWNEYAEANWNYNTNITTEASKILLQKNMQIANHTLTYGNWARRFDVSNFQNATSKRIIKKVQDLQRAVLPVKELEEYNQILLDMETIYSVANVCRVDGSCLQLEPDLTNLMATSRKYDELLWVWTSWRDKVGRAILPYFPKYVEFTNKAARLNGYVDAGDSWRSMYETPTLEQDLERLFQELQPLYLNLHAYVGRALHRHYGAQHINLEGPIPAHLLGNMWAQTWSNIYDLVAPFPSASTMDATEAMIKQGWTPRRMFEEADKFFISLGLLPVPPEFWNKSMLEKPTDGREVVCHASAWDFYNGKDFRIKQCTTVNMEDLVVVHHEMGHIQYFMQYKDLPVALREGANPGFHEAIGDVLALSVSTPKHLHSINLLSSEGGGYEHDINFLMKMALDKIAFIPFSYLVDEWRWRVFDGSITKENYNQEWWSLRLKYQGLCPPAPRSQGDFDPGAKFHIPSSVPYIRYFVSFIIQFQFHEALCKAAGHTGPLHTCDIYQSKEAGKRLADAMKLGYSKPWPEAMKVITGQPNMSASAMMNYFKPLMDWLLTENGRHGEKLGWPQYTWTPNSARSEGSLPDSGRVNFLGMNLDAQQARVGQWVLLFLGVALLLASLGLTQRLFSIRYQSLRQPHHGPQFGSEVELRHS
Assay: In vitro ACE inhibitory activity (hippuryl-L-histidyl-L-leucine substrate)
Type: biochemical
Settings: 37° C., 30 minutes, pH 8.3
Method: The assay medium contained an ACE preparation (rabbit lung), synthetic substrate (hippuryl-L-histidyl-L-leucine 5 mM), NaCl (300 mM) and phosphate buffer (100 mM, pH 8.3). […] After ethyl acetate was evaporated and distilled water was added, the hippuric acid was determined from its absorbance at 228 nm by spectrophotometer (Hitachi 100-41). The degree of ACE inhibition was calculated from activities with and without test compounds. […]
Starred links: 1 amine or outer side, 2 acyl side, 3 side chain; linkers in the order of their positions; H or OH if unused. Non-standard residues stand in square brackets, D forms with d. Residues, ends and D or L forms follow the SMILES beside them. *: point of attachment. d(γGlu) = O=C(O)[C@@H](CCC(=O)[*:2])N[*:1]; Oic = O=C(O)[C@@H]1C[C@@H]2CCCC[C@@H]2N1; Nicotinoyl = O=C(c1cccnc1)*

| COMPOUND | STUDY TARGET | IC50 |
| --- | --- | --- |
| NCCCC[C@H](NC(=O)c1cccnc1)C(=O)N[C@H](CCC(=O)N1c2ccccc2C[C@H]1C(=O)O)C(=O)O [Example 35] | ACE preparation (rabbit lung) (Oryctolagus cuniculus, UniProt P12822) | 11 nM |
| NCCCC[C@H](NC(=O)c1ccccc1)C(=O)N[C@H](CCC(=O)N1c2ccccc2C[C@H]1C(=O)O)C(=O)O [Example 39] | ACE preparation (rabbit lung) (Oryctolagus cuniculus, UniProt P12822) | 11 nM |
| NCCCC[C@H](NC(=O)OCCc1ccccc1)C(=O)N[C@H](CCC(=O)N1c2ccccc2C[C@H]1C(=O)O)C(=O)O [Example 3] | ACE preparation (rabbit lung) (Oryctolagus cuniculus, UniProt P12822) | 13 nM |

Query string: Reported IC50 for ACE preparation (rabbit lung) (Oryctolagus cuniculus, UniProt P12822), given NCCCC[C@H](NC(=O)c1cccnc1)C(=O)N[C@H](CCC(=O)N1[C@H](C(=O)O)C[C@@H]2CCCC[C@@H]21)C(=O)O [Example 69] (Nicotinoyl-Lys-[d(γGlu)]-[Oic]-OH) ?
Result string: 7.8 nM

Query string: API: value(readout= IC50, system= ACE preparation (rabbit lung) (Oryctolagus cuniculus, UniProt P12822), query= NCCCC[C@H](NC(=O)OC1CCCCC1)C(=O)N[C@H](CCC(=O)N1c2ccccc2C[C@H]1C(=O)O)C(=O)O [Example 4] )
Result string: 8.4 nM

Query string: Look up IC50 with ACE preparation (rabbit lung) (Oryctolagus cuniculus, UniProt P12822) for this compound: NCCCC[C@H](NC(=O)OCc1ccc2c(c1)OCO2)C(=O)N[C@H](CCC(=O)N1c2ccccc2C[C@H]1C(=O)O)C(=O)O [Example 74]
Result string: 6.6 nM

Query string: Entry NCCCC[C@H](NC(=O)c1cccnc1)C(=O)N[C@H](CCC(=O)N1[C@H](C(=O)O)C[C@@H]2CCCC[C@@H]21)C(=O)O [Example 15] (Nicotinoyl-Lys-[d(γGlu)]-[Oic]-OH) , system ACE preparation (rabbit lung) (Oryctolagus cuniculus, UniProt P12822): what IC50 was measured?
Result string: 6.4 nM

Query string: Lab request: please report IC50 under test system ACE preparation (rabbit lung) (Oryctolagus cuniculus, UniProt P12822) for COc1ccc(CCOC(=O)N[C@@H](CCCCN)C(=O)N[C@H](CCC(=O)N2c3ccccc3C[C@H]2C(=O)O)C(=O)O)cc1 [Example 28]
Result string: 11 nM
